Experiment: recombinant barcode read abundance after kanamycin selection (control-corrected) (log10(CPM+1)); higher = more efficient recombination; sequences stand for … in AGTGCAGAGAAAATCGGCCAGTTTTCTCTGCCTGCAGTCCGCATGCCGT…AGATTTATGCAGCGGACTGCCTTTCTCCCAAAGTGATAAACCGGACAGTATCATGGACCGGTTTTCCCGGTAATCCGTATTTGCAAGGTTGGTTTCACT; site = the 11-nt target;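 further: IS621 recombinase and bridge RNA in Escherichia coli cells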
Threshold rule: recombinant barcode read abundance (log10) greater than or equal to 0.08 is criterion met; below that, criterion not met.

Can TACTATTCTTGGGTTCTAACCTGTTGCCT (site TACTATTCTAG) be said to have recombinant barcode read abundance (log10) at or above 0.08?
criterion met

For this sequence, is measured recombinant barcode read abundance (log10) 0.08 or higher? TTGCTAACTTGGGTTCTAACCTGTTGCCT (site TTGCTAACTAG)
criterion met

Identify whether the reported recombinant barcode read abundance (log10) of the following sequence is 0.08 or greater: GTGATGTCTTGGGTTCTAACCTGTTGCCT (site GTGATGTCTAG)
criterion met

* * *

Assay: recombinant barcode read abundance after kanamycin selection (control-corrected) (log10(CPM+1)); higher = more efficient recombination; sequences stand for … in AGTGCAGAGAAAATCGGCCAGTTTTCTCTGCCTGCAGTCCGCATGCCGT…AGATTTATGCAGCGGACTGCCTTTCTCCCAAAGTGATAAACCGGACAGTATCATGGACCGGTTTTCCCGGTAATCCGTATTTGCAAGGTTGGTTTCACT; site = the 11-nt target
measured.parameter: recombinant barcode read abundance (log10)
When you answer, write just the number.

ATAAGCTCTTGGGTTCTAACCTGTTGCCT (site GTAAGCTCTAG) | 0.119
CTCTAACCTTGGGTTCTAACCTGTTGCGT (site CTCTATCCTAC) | 0.0249
GTCGCCTCTTGGGTTCTAACCTGTTGCCT (site GTCCCCTCTAG) | 0.491

Now consider a different sequence.
Field request: recombinant barcode read abundance (log10) | item: AAGCGTCCTTGGGTTCTAACCTGTTGCCT (site AAGCGTCCTAG)
1.24

* * *

Experiment: recombinant barcode read abundance after kanamycin selection (control-corrected) (log10(CPM+1)); higher = more efficient recombination; sequences stand for … in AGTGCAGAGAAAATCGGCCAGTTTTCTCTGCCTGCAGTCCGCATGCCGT…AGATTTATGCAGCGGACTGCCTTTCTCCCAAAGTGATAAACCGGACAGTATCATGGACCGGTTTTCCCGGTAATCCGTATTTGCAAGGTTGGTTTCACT; site = the 11-nt target
measured.parameter: recombinant barcode read abundance (log10)
# respond with the number and nothing more

Past entries and their recorded results:
ATGCCTCCTTGGGTTCTAACCTGTTGCTT (site GAAGGAGCTCT) | 0.07
GCAAGATCTTGGGTTCTAACCTGTTGCCT (site GCAAGATCTAG) | 1.36
ACACTGTCTTGGGTTCTAACCTGTTGCGG (site ACAATGTCTCC) | 0.0253
GAGACATCTTGGGTTCTAACCTGTTGCCT (site GAGAAATCTAG) | 0.11

Bench note: what recombinant barcode read abundance (log10) did ACTGATTCTTGGGTTCTAACCTGTTGCCT (site ACTGATTCTAG) show?
1.34

Quick one: recombinant barcode read abundance (log10) for CACATTCCTTGGGTTCTAACCTGTTGCCT (site TACATTCCTAG) ?
0.06

Query: recombinant barcode read abundance (log10); subject: TCTACCTCTTGGGTTCTAACCTGTTGCCT (site TCTACGTCTAG)
0.102

Can you share its recombinant barcode read abundance (log10)? I mean this sequence: CTACCAACTTGGGTTCTAACCTGTTGCCT (site CTACCATCTAG)
0.0148

Report recombinant barcode read abundance (log10) for ACACTCCCTTGGGTTCTAACCTGTTGCCT (site AAGCTCCCTAG) please.
0.415

Tell me the measured recombinant barcode read abundance (log10) of TGAAGTACTTGGGTTCTAACCTGTTGCCT (site TGAAATACTAG) , please.
0.35
